Subject Of Test: HIV-1 94UG103 envelope glycoprotein (Env) (HIV-1)
Assay Name: cell-based or functional assay
Provide the recorded IC50 neutralization for the entries that follow.
# number only, unit µg/mL dropped from output

*Q* I would be grateful if you could share the reported IC50 neutralization for PGT-123 (antibody, V domains shown) VH: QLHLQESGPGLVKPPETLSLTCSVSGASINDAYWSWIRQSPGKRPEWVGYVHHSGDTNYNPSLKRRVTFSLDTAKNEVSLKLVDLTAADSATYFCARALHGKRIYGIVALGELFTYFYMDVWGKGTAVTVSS VL: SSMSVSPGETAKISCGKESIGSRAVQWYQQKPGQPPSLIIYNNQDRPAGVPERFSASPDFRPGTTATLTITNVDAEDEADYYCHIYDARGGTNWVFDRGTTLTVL .
*A* 0.846

*Q* I would be grateful if you could share the reported IC50 neutralization for PGT-130 (antibody, V domains shown) VH: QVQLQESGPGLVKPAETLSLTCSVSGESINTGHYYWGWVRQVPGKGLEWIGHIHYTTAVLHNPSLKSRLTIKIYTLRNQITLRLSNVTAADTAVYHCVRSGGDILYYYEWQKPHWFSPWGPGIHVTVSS VL: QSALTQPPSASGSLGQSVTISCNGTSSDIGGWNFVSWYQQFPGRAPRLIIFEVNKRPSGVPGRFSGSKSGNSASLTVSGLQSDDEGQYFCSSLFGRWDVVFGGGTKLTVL .
*A* 0.635
